Exercise: for every item that follows, state its recorded emax.
# procedure-details: Spectral Properties of 9 in CH2Cl2, Table 3
# Type: physicochemical
# Set-up: unit not given beside the values

Please give the measured emax for this compound: CCC(C)Nc1c2ccc(=[N+]3CCCCC3)cc-2oc2cc(N3CCCCC3)ccc12.O=S(=O)([O-])C(F)(F)F (racemic) 52423

Please give the measured emax for this compound: COC(=O)C1CCN(c2ccc3c(N4CCCCC4)c4ccc(=[N+]5CCC(C(=O)OC)CC5)cc-4oc3c2)CC1.O=S(=O)([O-])C(F)(F)F (stereo not drawn) 54908

Please give the measured emax for this compound: CCN(CC)c1c2ccc(=[N+]3CCCCC3)cc-2oc2cc(N3CCCCC3)ccc12.O=S(=O)([O-])C(F)(F)F 50978

Please give the measured emax for this compound: O=S(=O)([O-])C(F)(F)F.c1cc2c(N3CCCCC3)c3ccc(=[N+]4CCCCC4)cc-3oc2cc1N1CCCCC1 60409

Please give the measured emax for this compound: CC(Nc1c2ccc(=[N+]3CCCCC3)cc-2oc2cc(N3CCCCC3)ccc12)C(=O)OC(C)(C)C.O=S(=O)([O-])C(F)(F)F (stereo not drawn) 62044

Please give the measured emax for this compound: O=S(=O)([O-])C(F)(F)F.c1ccc(CSc2c3ccc(=[N+]4CCCCC4)cc-3oc3cc(N4CCCCC4)ccc23)cc1 82617

====

# procedure-details: Spectral properties (absorbance, fluorescence, quantum yield) of sulfonated BODIPY dyes 6, Table 1
# Format: physicochemical
# experimental-setup: solvent MeOH
Threshold 50000 M⁻¹ cm⁻¹. e below it: 1.0. e at it or above: 0.0.

Please state whether e is below 50000 M⁻¹ cm⁻¹ for Cc1cc(C)n2c1C=C1C(=O)N(C)C(c3ccccc3)=[N+]1[B-]2(F)F 0.0

Please state whether e is below 50000 M⁻¹ cm⁻¹ for Cc1cc(C)n2c1C=C1C(=O)N(C)C(c3ccc(I)cc3)=[N+]1[B-]2(F)F 0.0

Please state whether e is below 50000 M⁻¹ cm⁻¹ for Cc1c(S(=O)(=O)O)c(C)n2c1C=C1C(=O)N(C)C(c3ccc(C#CCCCC(=O)O)cc3)=[N+]1[B-]2(F)F 1.0

Please state whether e is below 50000 M⁻¹ cm⁻¹ for Cc1cc(C)n2c1C=C1C(=O)NC(c3ccccc3)=[N+]1[B-]2(F)F 1.0

Please state whether e is below 50000 M⁻¹ cm⁻¹ for CC1=[N+]2C(=Cc3c(C)cc(C)n3[B-]2(F)F)C(=O)N1C 0.0

Please state whether e is below 50000 M⁻¹ cm⁻¹ for Cc1cc(C)n2c1C=C1C(=O)N(C)C(c3ccc([N+](=O)[O-])cc3)=[N+]1[B-]2(F)F 1.0

Please state whether e is below 50000 M⁻¹ cm⁻¹ for Cc1c(S(=O)(=O)[O-])c(C)n2c1C=C1C(=O)N(C)C(c3ccc(I)cc3)=[N+]1[B-]2(F)F.[Na+] 1.0

====

# procedure-details: Spectral Properties of 9 in CH2Cl2, Table 3
# Type: physicochemical
# experimental-setup: Rhodamine 101 in EtOH as the standard
measured-attribute: Ff
When you answer, write just the number.

Please give the measured Ff for this compound: CCN(CC)c1c2ccc(=[N+]3CCCCC3)cc-2oc2cc(N3CCCCC3)ccc12.O=S(=O)([O-])C(F)(F)F 0.11

Please give the measured Ff for this compound: CC(Nc1c2ccc(=[N+]3CCCCC3)cc-2oc2cc(N3CCCCC3)ccc12)C(=O)OC(C)(C)C.O=S(=O)([O-])C(F)(F)F (stereo not drawn) 0.90

Please give the measured Ff for this compound: COC(=O)C1CCN(c2ccc3c(N4CCCCC4)c4ccc(=[N+]5CCC(C(=O)OC)CC5)cc-4oc3c2)CC1.O=S(=O)([O-])C(F)(F)F (stereo not drawn) 0.02

Please give the measured Ff for this compound: CCC(C)Nc1c2ccc(=[N+]3CCCCC3)cc-2oc2cc(N3CCCCC3)ccc12.O=S(=O)([O-])C(F)(F)F (racemic) 0.85

Please give the measured Ff for this compound: O=S(=O)([O-])C(F)(F)F.c1cc2c(N3CCCCC3)c3ccc(=[N+]4CCCCC4)cc-3oc2cc1N1CCCCC1 0.14

Please give the measured Ff for this compound: O=S(=O)([O-])C(F)(F)F.c1ccc(CSc2c3ccc(=[N+]4CCCCC4)cc-3oc3cc(N4CCCCC4)ccc23)cc1 0.79
